System: CCRIS mutagenicity, Ames/micronucleus/aberration tests
Test: CCRIS mutagenicity studies
Details: Test System: AMES SALMONELLA TYPHIMURIUM; Strain/Indicator: TA100; Metabolic Activation: HAMSTER, LIVER, S-9, AROCLOR 1254 (30%); Method: PREINCUBATION
Active and inactive are the calls of the source. The rule behind the calls is not given here.
Outcomes: active, inactive

| compound | assay-target | class-label |
| --- | --- | --- |
| Cc1cccc(C#N)c1 | CCRIS mutagenicity, Ames/micronucleus/aberration tests | inactive |
| CCCCC(C=O)CC (stereo not given) | CCRIS mutagenicity, Ames/micronucleus/aberration tests | inactive |
| COC(=O)NC(=S)Nc1ccccc1NC(=S)NC(=O)OC | CCRIS mutagenicity, Ames/micronucleus/aberration tests | active |
| Oc1cc(Cl)c(Cl)c(Cl)c1 | CCRIS mutagenicity, Ames/micronucleus/aberration tests | inactive |
| N#CCc1ccccc1 | CCRIS mutagenicity, Ames/micronucleus/aberration tests | inactive |
| OC[P+](CO)(CO)CO | CCRIS mutagenicity, Ames/micronucleus/aberration tests | inactive |
| OCC(CO)(CBr)CBr | CCRIS mutagenicity, Ames/micronucleus/aberration tests | active |
| O=[N+]([O-])c1ccc2c(c1)Cc1cccc([N+](=O)[O-])c1-2 | CCRIS mutagenicity, Ames/micronucleus/aberration tests | active |
| CCCCOCCCC | CCRIS mutagenicity, Ames/micronucleus/aberration tests | inactive |
| Cc1ccc(Cl)cc1 | CCRIS mutagenicity, Ames/micronucleus/aberration tests | inactive |
| O.O.O.O.O.O.O=[N+]([O-])[O-].O=[N+]([O-])[O-].O=[N+]([O-])[O-].[La+3] | CCRIS mutagenicity, Ames/micronucleus/aberration tests | inactive |
| FC(F)(F)c1cccc(Cl)c1 | CCRIS mutagenicity, Ames/micronucleus/aberration tests | inactive |
| Nc1c(Cl)cc([N+](=O)[O-])cc1Cl | CCRIS mutagenicity, Ames/micronucleus/aberration tests | inactive |
| O=Nc1ccc(O)cc1 | CCRIS mutagenicity, Ames/micronucleus/aberration tests | active |
| Oc1cccc(Nc2ccccc2)c1 | CCRIS mutagenicity, Ames/micronucleus/aberration tests | inactive |
